# Tested on: U87MG pLVX-IDH2 R140Q-neo cells
# test.name: U87MG pLVX-IDH2 R140Q-neo cell based assay, 2-HG in media by LC-MS at 48 hours
# cond: Homo sapiens, U-87 MG
# Procedure: U87MG pLVX-IDH2 R140Q-neo cells are grown in T125 flasks in DMEM containing 10% FBS, 1× penicillin/streptomycin and 500 μg/mL G418. They are harvested by trypsin and seeded into 96 well white bottom plates at a density of 5000 cell/well in 100 μl/well in DMEM with 10% FBS. […] At 48 hours, 100 ul of media is removed from each well and analyzed by LC-MS for 2-HG concentrations. […] The plate is then read for luminescence with an integration time of 500 ms to determine compound effects on growth inhibition.
So I've got a bunch of compounds here, and I need their IC50 values.

Query: # value lookup — system U87MG pLVX-IDH2 R140Q-neo cells, readout IC50, item CC(C)(O)CNc1nc(Nc2ccnc(C(F)(F)F)c2)nc(-c2cccc(Cl)n2)n1
Result: < 0.1 µM

Query: I'm curious: which IC50 was measured for Nc1ccnc(-c2nc(NCC3CC3)nc(Nc3cc(F)cc(F)c3)n2)n1 tested on U87MG pLVX-IDH2 R140Q-neo cells?
Result: < 0.1 µM

Query: Tell me reported IC50 for CC(C)(CO)CNc1nc(Nc2ccncc2)nc(-c2ccccc2)n1 , tested with U87MG pLVX-IDH2 R140Q-neo cells.
Result: 0.1 to 1 µM

Query: Please provide the recorded IC50 for CC(C)Nc1nc(Nc2ccncc2)nc(-c2ccccc2)n1 , tested on U87MG pLVX-IDH2 R140Q-neo cells.
Result: 0.1 to 1 µM

Query: Give U87MG pLVX-IDH2 R140Q-neo cells IC50 for CC(C)Nc1nc(Nc2ccnc(C(C)(C)O)c2)nc(-c2cccc(Cl)n2)n1
Result: < 0.1 µM

* * *

Kindly supply the reported pIC50 values for the records listed here.
# test.system: IDH2 R140Q (Homo sapiens, UniProt P48735, R140Q)
# Sequence (P48735 40-452 R140Q): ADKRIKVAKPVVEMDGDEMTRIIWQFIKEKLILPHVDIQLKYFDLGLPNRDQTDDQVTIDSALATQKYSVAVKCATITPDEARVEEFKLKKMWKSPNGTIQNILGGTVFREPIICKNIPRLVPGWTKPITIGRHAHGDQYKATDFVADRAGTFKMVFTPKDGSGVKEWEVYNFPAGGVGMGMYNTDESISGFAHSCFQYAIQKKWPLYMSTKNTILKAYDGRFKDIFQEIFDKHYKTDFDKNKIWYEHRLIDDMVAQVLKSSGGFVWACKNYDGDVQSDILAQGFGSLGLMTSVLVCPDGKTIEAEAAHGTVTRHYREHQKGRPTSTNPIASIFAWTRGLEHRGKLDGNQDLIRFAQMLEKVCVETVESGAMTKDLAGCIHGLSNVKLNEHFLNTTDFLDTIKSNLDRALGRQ
# test.name: IDH2 R140Q enzymatic assay (cofactor depletion, similar format)
# Format: biochemical
# cond: read-out: Enz R140Q
# Procedure: [The source words this procedure for another variant and says it was used here with some conditions changed.] Compounds are assayed for IDH2 R172K inhibitory activity through a cofactor depletion assay. […] The reaction is terminated by the addition of a second enzyme, diaphorase, and a corresponding substrate, resazurin. […]
pIC50: −log10 of the molar value.

Query: Entry CCNc1nc(Nc2ccncc2)nc(-c2ccccc2)n1 has what pIC50?
Result: > 7.00

Query: Dear colleague, I am looking for the recorded pIC50 of the following compound: CC(C)Nc1nc(Nc2cccc(S(=O)(=O)N(C)C)c2)nc(-c2ccccc2)n1
Result: > 7.00

Query: May I ask what pIC50 has been recorded for CC(C)(O)CNc1nc(Nc2ccc(F)nc2)nc(-c2cccc(Cl)n2)n1 ?
Result: 5.00 to 6.00

Query: Any idea what pIC50 was measured for CC(C)Nc1nc(Nc2cccc(S(C)(=O)=O)c2)nc(-c2nc(C(F)(F)F)ccc2F)n1 ?
Result: 6.00 to 7.00

Query: Any idea what its pIC50 is? The compound is CC(C)Nc1nc(Nc2ccnc(C(F)(F)F)c2)nc(-c2cccc([S+](C)[O-])c2)n1 (stereo not shown)
Result: 6.00 to 7.00

Query: Field request: pIC50 | item: FC(F)(F)c1cncc(Nc2nc(NC3COC3)nc(-c3cccc(C(F)(F)F)n3)n2)c1
Result: 6.00 to 7.00

Query: Recorded pIC50 of OC1CCCC1Nc1nc(Nc2ccnc(C(F)(F)F)c2)nc(-c2cccc(C(F)(F)F)n2)n1 (stereo not shown) , please.
Result: 6.00 to 7.00

Query: Could you share which pIC50 value was measured for CC(C)Nc1nc(Nc2cc(F)cc(F)c2)nc(-c2cnc(N)nc2)n1 ?
Result: > 7.00

Query: State the recorded pIC50 for this entry: CC(C)Nc1nc(Nc2cccc(Cl)c2)nc(-c2ccccc2)n1
Result: > 7.00

Query: Reported pIC50, compound CC(C)Nc1nc(Nc2cc(F)cc(S(C)(=O)=O)c2)nc(-c2cccc(C(F)(F)F)n2)n1 : ____
Result: 6.00 to 7.00

Query: Query (compound): CC(C)(O)CNc1nc(Nc2ccnc(C(F)(F)F)c2)nc(-c2cccc(Cl)n2)n1 ; field requested: pIC50
Result: 6.00 to 7.00

Query: Need pIC50, item CC1CC1Nc1nc(Nc2ccnc(C(F)(F)F)c2)nc(-c2cccc(C(F)(F)F)n2)n1 (stereo not shown)
Result: 6.00 to 7.00

Query: For CC(C)(O)CNc1nc(Nc2ccnc(C(C)(F)F)c2)nc(-c2cccc(C(C)(F)F)n2)n1 , what is its reported pIC50?
Result: 6.00 to 7.00

Query: Please look up its pIC50: CC(C)Nc1nc(Nc2cncs2)nc(-c2ccccc2)n1
Result: > 7.00

Query: Dear colleague, I am looking for the recorded pIC50 of the following compound: CCNC(=O)Nc1nc(Nc2ccccc2)nc(-c2ccccc2)n1
Result: 6.00 to 7.00

Query: Look up pIC50: CC(C)(O)CNc1nc(Nc2cc(F)cc(F)c2)nc(-c2cccc(C(C)(F)F)n2)n1
Result: 6.00 to 7.00

Query: Can you share its pIC50? I mean this compound: Cc1cc(Nc2nc(NC(=O)C(C)(C)C)nc(-c3ccccc3)n2)ccn1
Result: 6.00 to 7.00

Query: What does the record list as pIC50 for CC(C)Nc1nc(Nc2ccnc(C(F)(F)F)c2)nc(-c2cc(Cl)cc(C(F)(F)F)c2)n1 ?
Result: 6.00 to 7.00

Query: Need pIC50 of CC(C)(C)Nc1nc(Nc2cc(F)cc(F)c2)nc(-c2cccc(N)n2)n1 , thanks.
Result: 6.00 to 7.00

Query: Give the measured pIC50 of c1ccc(Nc2nc(NC3CCCCC3)nc(-c3ccccc3)n2)cc1 .
Result: > 7.00

Query: I would be grateful if you could share the reported pIC50 for CC(C)(O)CNc1nc(Nc2ccnc(C(C)(C)C#N)c2)nc(-c2cccc(C(F)(F)F)n2)n1 .
Result: 5.00 to 6.00

Query: Tell me the measured pIC50 of Cc1cc(Nc2nc(NC(C)C)nc(-c3ccccc3)n2)cc(C)n1 , please.
Result: 6.00 to 7.00

Query: For CC(C)(C)CNc1nc(Nc2ccncc2)nc(-c2ccccc2)n1 , what is its reported pIC50?
Result: > 7.00

Query: Quick one: pIC50 for CC(C)Nc1nc(Nc2ccncc2)nc(-c2cccc(Cl)c2)n1 ?
Result: > 7.00

Query: Reported pIC50 for COc1ncccc1-c1nc(Nc2ccnc(C(F)(F)F)c2)nc(NC(C)C)n1 : what is it?
Result: 6.00 to 7.00

Query: Record request: pIC50 value, item CC(C)Nc1nc(Nc2ccnc(C(F)(F)F)c2)nc(-c2cccc(C(C)(F)F)n2)n1
Result: 6.00 to 7.00

Query: // pIC50 lookup, key: CC(C)C(C)Nc1nc(Nc2ccncc2)nc(-c2ccccc2)n1 (stereo not shown)
Result: > 7.00

Query: Fill in: pIC50 of CCCCNc1nc(Nc2ccncc2)nc(-c2ccccc2)n1 is ___
Result: > 7.00

Query: Fill in: pIC50 of CC(C)(O)CNc1nc(Nc2ccnc(C(F)(F)F)c2)nc(-c2cccc(C(C)(F)F)n2)n1 is ___
Result: 6.00 to 7.00

Query: Give the measured pIC50 of FC(F)(F)CNc1nc(Nc2ccccc2)nc(-c2ccccc2)n1 .
Result: > 7.00

Query: Quick one: pIC50 for Fc1ccc(Nc2nc(NC3CCC3)nc(-c3cccc(Cl)n3)n2)cn1 ?
Result: > 7.00

Query: Name the reported pIC50 value associated with the compound O=C1CC(Nc2nc(Nc3ccncc3)nc(-c3ccccc3)n2)C1
Result: 6.00 to 7.00

Query: I would be grateful if you could share the reported pIC50 for FC1(F)CC(Nc2nc(Nc3ccncc3)nc(-c3ccccc3)n2)C1 .
Result: > 7.00

Query: Name the reported pIC50 value associated with the compound N#Cc1cc(Nc2nc(NCC3CCCO3)nc(-c3cccc(C(F)(F)F)n3)n2)ccn1 (stereo not shown)
Result: 6.00 to 7.00
